Let's look at some compounds and their measured MIC.
System: Cryptococcus neoformans
Assay: Antifungal activity against Cryptococcus neoformans ATCC 3312 after 72 to 96 hrs by twofold serial dilution method
Type: functional

COMPOUND: O=C(c1cccs1)[C@H]1[C@H](c2ccc([N+](=O)[O-])cc2)C2CCCN2[C@]12C(=O)Nc1ccccc12 (stereo partly specified)
MIC (µg/mL): 100

COMPOUND: Cc1ccc([C@@H]2C3CCCN3[C@]3(C(=O)Nc4ccccc43)[C@H]2C(=O)c2cccs2)cc1 (stereo partly specified)
MIC (µg/mL): 100

COMPOUND: O=C(c1cccs1)[C@H]1[C@H](c2ccc(Cl)cc2)C2CCCN2[C@]12C(=O)Nc1ccccc12 (stereo partly specified)
MIC (µg/mL): 12.5

COMPOUND: O=C(c1cccs1)[C@H]1[C@H](c2cccc(Br)c2)C2CCCN2[C@]12C(=O)Nc1ccccc12 (stereo partly specified)
MIC (µg/mL): 25

COMPOUND: C[C@@H]1[C@H](O)[C@@H](C)/C=C/C=C/C=C/C=C/C=C/C=C/C=C/[C@H](O[C@@H]2O[C@H](C)[C@@H](O)[C@H](N)[C@@H]2O)C[C@@H]2O[C@](O)(C[C@@H](O)C[C@@H](O)[C@H](O)CC[C@@H](O)C[C@@H](O)CC(=O)O[C@H]1C)C[C@H](O)[C@H]2C(=O)O
MIC (µg/mL): 25

COMPOUND: O=C(c1cccs1)[C@H]1[C@H](c2ccc(F)cc2)C2CCCN2[C@]12C(=O)Nc1ccccc12 (stereo partly specified)
MIC (µg/mL): 25
